A collection of molecules and their measured activity at 2 µg/mL
System: P. falciparum 3D7 parasites
TEST_METHOD_NOTES: P. falciparum growth inhibition assay, 2-cycle (120 h treatment), delayed-death screen and dose-response
Assay type: cell-based, Plasmodium falciparum
CONDITION_DESCRIPTION: Plasmodium falciparum, 3D7; P. falciparum, 120 h, screen at 2 μg/mL, replicate 1; read-out: Pf_120h_%Growth_Rep1
Use % as the unit, but write only the number.

Some solved entries appear below for comparison.
| MOLECULE | activity at 2 µg/mL [%] |
| --- | --- |
| C=C[C@]1(C)C[C@@H](OC(=O)CSCCN(CC)CC)[C@]2(C)[C@H](C)CC[C@]3(CCC(=O)[C@H]32)[C@@H](C)[C@@H]1O [Tiamulin, reference compound] | 6.75 |
| NC(=O)C=Cc1ccccc1 [Cinnamamide] | 152 |
| C[C@H]1CCCC(=O)CCC/C=C/c2cc(O)cc(O)c2C(=O)O1 [Zearalenone] | 88.9 |
| CC[C@H](C)C(=O)[C@@H](C)C1=CC(=O)C2=C(O[C@]3(C)CC[C@H]4O[C@@H](C(C)(C)O)CC[C@]4(C)[C@H]3C2)C1=O [Cochlioquinone B] | 47 |
| O=C1NC(c2c[nH]c3ccc(O)cc23)=C/C1=C1\C(=O)Nc2ccccc21 [Violacein] | 170 |

Inquiry: Using the record for Cc1nnc2n1-c1sc(CCC(=O)N3CCOCC3)cc1C(c1ccccc1Cl)=NC2 [WEB 2086] , report its activity at 2 µg/mL.
Reply text: 157

Inquiry: Using the record for CS(=O)(=O)c1ccc([C@@H](O)[C@@H](CO)NC(=O)C(Cl)Cl)cc1 [Thiamphenicol, reference compound] , report its activity at 2 µg/mL.
Reply text: 27.2

Inquiry: Using the record for COC(=O)[C@]1(Cc2ccc3c(c2)C[C@H](O)C(C)(C)O3)OC(=O)C(O)=C1c1ccc(O)cc1 [Butyrolactone V] , report its activity at 2 µg/mL.
Reply text: 100

Inquiry: Using the record for CC1(C)C=Cc2cc3ccc(=O)oc3cc2O1 [Xanthyletin] , report its activity at 2 µg/mL.
Reply text: 106

Inquiry: Using the record for CN(C)[C@@H]1C(O)=C(C(N)=O)C(=O)[C@@]2(O)C(O)=C3C(=O)c4c(O)cccc4[C@@](C)(O)[C@H]3C[C@@H]12 [Tetracycline] , report its activity at 2 µg/mL.
Reply text: 164

Inquiry: Using the record for CCC[C@H]1CC2=C(C[C@@H](CC)CC3=C1C(=O)OC3=O)C(=O)OC2=O [Byssochlamic acid] , report its activity at 2 µg/mL.
Reply text: 129

Inquiry: Using the record for COc1cc(-c2oc3c(OC)c(OC)cc(O)c3c(=O)c2OC)ccc1O [Ternatin] , report its activity at 2 µg/mL.
Reply text: 137
